- tested target: T1, CNA beta C-terminal fragment (Homo sapiens, UniProt P16298)
- T1 construct: expressed in transfected cells; host or cells: yeast (MB210a transformed with library plasmid, mated with bait strain)
- assay text: Yeast two-hybrid assays of R5G42 mutants
- Assay type: binding
- reported conditions: plasmids pSH18-34, pJK103, pRB18-40

{"molecule": "C2: R5G42 mutant having a one amino acid change (SEQ ID 23) (protein, Aptamer R5G42 mutant C2) MVKQIESKTAFQEALDAAGDKLVVVDFSATWCGPSAVTFAVCALGPCKMIKLFFHSLSEKYSNVIFLEVDVDDCQDVASECEVKCMPTFQFFKKGQKVGEFSGANKEKLEATINELV", "yeast two-hybrid interaction": "shown to interact"}
{"molecule": "C7: R5G42 mutant having a one amino acid change (SEQ ID 27) (protein, Aptamer R5G42 mutant C7) MVKQIESKTAFQEALDAAGDKPVVVDFSATWCGPSAVTFAVCALGPCKMIKPFFHSLSEKYSNVIFLEVDVDDCQDVASECEVKCMPTFQFFKKGQKVGEFSGANKEKLEATINELV", "yeast two-hybrid interaction": "shown to interact"}
{"molecule": "C8: R5G42 mutant having a one amino acid change (SEQ ID 28) (protein, Aptamer R5G42 mutant C8) MVKQIESKTAFQEALDAAGDKLVVVDFSATWCGPSAVTIAVCALGPCKMIKPFFHSLSEKYSNVIFLEVDVDDCQDVASECEVKCMPTFQFFKKGQKVGEFSGANKEKLEATINELV", "yeast two-hybrid interaction": "shown to interact"}
